- ASSAYED_TARGET: α-glucosidase (EC3.2.1.20) (Saccharomyces cerevisiae, UniProt P53341)
- Construct: purchased Sigma Aldrich
- Sequence (P53341 whole entry): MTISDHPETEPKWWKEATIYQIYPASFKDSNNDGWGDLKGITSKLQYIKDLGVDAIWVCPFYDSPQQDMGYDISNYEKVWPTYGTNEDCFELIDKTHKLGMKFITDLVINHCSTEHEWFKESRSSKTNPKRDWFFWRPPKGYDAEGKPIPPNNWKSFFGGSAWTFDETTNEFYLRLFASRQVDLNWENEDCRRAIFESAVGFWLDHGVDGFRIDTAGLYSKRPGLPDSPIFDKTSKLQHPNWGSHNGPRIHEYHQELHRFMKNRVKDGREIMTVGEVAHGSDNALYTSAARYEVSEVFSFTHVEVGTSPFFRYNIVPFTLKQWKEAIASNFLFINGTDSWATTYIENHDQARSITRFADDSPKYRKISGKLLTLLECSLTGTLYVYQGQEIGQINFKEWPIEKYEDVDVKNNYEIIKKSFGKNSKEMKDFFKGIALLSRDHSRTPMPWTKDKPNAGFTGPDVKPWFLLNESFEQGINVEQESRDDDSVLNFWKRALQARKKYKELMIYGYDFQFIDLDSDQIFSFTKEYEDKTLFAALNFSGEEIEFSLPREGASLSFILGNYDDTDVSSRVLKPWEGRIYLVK
- TEST_PROTOCOL: α-Glucosidase enzyme kinetics (Lineweaver–Burk, Dixon plots, secondary plots, Yang's method)
- Format: biochemical
- Parameters: unit not given here
- TEST_PARAMETERS: [I] 7.5 μM
Reported Vmax by item:
Respond using a number only.

Reference set, count: 3
CC1(C)C=Cc2c(cc(O)c3c(=O)c4c(oc23)-c2c(O)cc(O)c3c2C(C4)C(C)(C)O3)O1 (stereo not shown) :: 6.3816
CC(C)=CCCC1(C)C=Cc2c(cc(O)c3c(=O)c(CC=C(C)C)c(-c4cc(O)c(O)cc4O)oc23)O1 (single isomer, unassigned; (-)) :: 4.74
CC(C)=CCc1c(-c2cc(O)c(O)cc2O)oc2c3c(cc(O)c2c1=O)OC(C)(C)C=C3 :: 5.0352

So what does the record say about Vmax for `C=C(C)[C@H]1Cc2c(oc3c4c(cc(O)c3c2=O)OC(C)(C)C=C4)-c2c(O)cc(O)c(O)c21` ?
9.7056

###

- ASSAYED_TARGET: α-glucosidase (EC3.2.1.20) (Saccharomyces cerevisiae)
- Construct: purchased Sigma Aldrich
- TEST_PROTOCOL: α-Glucosidase enzyme kinetics (Lineweaver–Burk, Dixon plots, secondary plots, Yang's method)
- Assay type: biochemical
- Set-up: unit not given here
- TEST_PARAMETERS: [I] 15.0 μM
TEST_READOUT: Vmax
Simply state the number, no unit and no words.

C=C(C)[C@H]1Cc2c(oc3c4c(cc(O)c3c2=O)OC(C)(C)C=C4)-c2c(O)cc(O)c(O)c21 :: 9.6712

Item `CC(C)=CCc1c(-c2cc(O)c(O)cc2O)oc2c3c(cc(O)c2c1=O)OC(C)(C)C=C3` has what recorded Vmax?
4.2992

Another molecule to look at: CC(C)=CCCC1(C)C=Cc2c(cc(O)c3c(=O)c(CC=C(C)C)c(-c4cc(O)c(O)cc4O)oc23)O1 (single isomer, unassigned; (-))
3.67

Do the same for CC1(C)C=Cc2c(cc(O)c3c(=O)c4c(oc23)-c2c(O)cc(O)c3c2C(C4)C(C)(C)O3)O1 (stereo not shown) please
7.3692

###

- ASSAYED_TARGET: α-glucosidase (EC3.2.1.20) (Saccharomyces cerevisiae, UniProt P53341)
- Construct: purchased Sigma Aldrich
- TEST_PROTOCOL: α-Glucosidase enzyme kinetics (Lineweaver–Burk, Dixon plots, secondary plots, Yang's method)
- Type: biochemical
- TEST_PARAMETERS: Ki (inhibition constant), from Dixon plots
TEST_READOUT: Ki (µM)
Value expressed in µM; do not type the unit.

Name the reported Ki value associated with the compound `CC(C)=CCc1c(-c2cc(O)c(O)cc2O)oc2c3c(cc(O)c2c1=O)OC(C)(C)C=C3`
15.8

###

Listed here are compounds together with their documented KSV.
- ASSAYED_TARGET: α-glucosidase (Saccharomyces cerevisiae, UniProt P53341)
- Construct: purchased Sigma Aldrich
- Sequence (P53341 whole entry): as above
- TEST_PROTOCOL: Binding affinity measurement by fluorescence quenching (Stern–Volmer)
- TEST_PARAMETERS: Stern–Volmer constant, pH 6.8, 37 °C

Illustrative cases are given below, each with its answer.
CC(C)=CCCC1(C)C=Cc2c(cc(O)c3c(=O)c(CC=C(C)C)c(-c4cc(O)c(O)cc4O)oc23)O1 (single isomer, unassigned; (-)) [Compound 5] :: 1.63 ×10^5 L·mol^–1
C=C(C)C1Cc2c(oc3cc(OC)cc(O)c3c2=O)-c2c(O)cc(O)c(O)c21 (stereo not drawn) [Compound 1] :: 1.84 ×10^5 L·mol^–1
C=C(C)[C@H]1Cc2c(oc3c4c(cc(O)c3c2=O)OC(C)(C)C=C4)-c2c(O)cc(O)c(O)c21 [Compound 2, artobiloxanthone] :: 1.53 ×10^5 L·mol^–1
CC(C)=CCc1c(-c2cc(O)c(O)cc2O)oc2c3c(cc(O)c2c1=O)OC(C)(C)C=C3 [Compound 6, artonin E] :: 0.93 ×10^5 L·mol^–1
CC1(C)Oc2c(O)cc(O)c3c2C1Cc1c-3oc2cc(O)cc(O)c2c1=O (stereo not drawn) [Compound 3, artoindonesianin P] :: 0.51 ×10^5 L·mol^–1

With those in mind, consider the next compound.
// returns reported KSV for input CC1(C)C=Cc2c(cc(O)c3c(=O)c4c(oc23)-c2c(O)cc(O)c3c2C(C4)C(C)(C)O3)O1 (stereo not drawn) [Compound 4, cycloartobiloxanthone]
1.29 ×10^5 L·mol^–1

###

- ASSAYED_TARGET: α-glucosidase (EC3.2.1.20) (Saccharomyces cerevisiae)
- Construct: purchased Sigma Aldrich
- TEST_PROTOCOL: α-Glucosidase enzyme kinetics (Lineweaver–Burk, Dixon plots, secondary plots, Yang's method)
- Assay type: biochemical
- TEST_PARAMETERS: inhibitor binding with free enzyme; secondary plots of slopes; read-out: KI
TEST_READOUT: pKi
Convention used: pKi is expressed as -log10 of the molar concentration.

Which pKi value is on record for CC(C)=CCCC1(C)C=Cc2c(cc(O)c3c(=O)c(CC=C(C)C)c(-c4cc(O)c(O)cc4O)oc23)O1 (single isomer, unassigned; (-)) ?
5.27

###

Listed compounds paired with reported Vmax
- ASSAYED_TARGET: α-glucosidase (EC3.2.1.20) (Saccharomyces cerevisiae)
- Construct: purchased Sigma Aldrich
- TEST_PROTOCOL: α-Glucosidase enzyme kinetics (Lineweaver–Burk, Dixon plots, secondary plots, Yang's method)
- Type: biochemical
- Design: unit not given here
- TEST_PARAMETERS: [I] 30.0 μM
Keep the answer to the number alone.

Solved cases (3 shown):
CC(C)=CCCC1(C)C=Cc2c(cc(O)c3c(=O)c(CC=C(C)C)c(-c4cc(O)c(O)cc4O)oc23)O1 (single isomer, unassigned; (-)) [Compound 5] :: 2.79
C=C(C)[C@H]1Cc2c(oc3c4c(cc(O)c3c2=O)OC(C)(C)C=C4)-c2c(O)cc(O)c(O)c21 [Compound 2, artobiloxanthone] :: 9.8012
CC1(C)C=Cc2c(cc(O)c3c(=O)c4c(oc23)-c2c(O)cc(O)c3c2C(C4)C(C)(C)O3)O1 (stereo not shown) [Compound 4, cycloartobiloxanthone] :: 7.4627

Moving on to the next compound.
Which measured Vmax value corresponds to CC(C)=CCc1c(-c2cc(O)c(O)cc2O)oc2c3c(cc(O)c2c1=O)OC(C)(C)C=C3 [Compound 6, artonin E] ?
3.6219

###

- ASSAYED_TARGET: α-glucosidase (EC3.2.1.20) (Saccharomyces cerevisiae)
- Construct: purchased Sigma Aldrich
- TEST_PROTOCOL: α-Glucosidase enzyme kinetics (Lineweaver–Burk, Dixon plots, secondary plots, Yang's method)
- Format: biochemical
- TEST_PARAMETERS: KI, inhibitor binding with free enzyme; secondary plots of slopes
TEST_READOUT: pKi
Lab note — pKi values are minus log10 of concentrations in M.

So what pKi did `CC(C)=CCc1c(-c2cc(O)c(O)cc2O)oc2c3c(cc(O)c2c1=O)OC(C)(C)C=C3` get with α-glucosidase (EC3.2.1.20) (Saccharomyces cerevisiae)?
4.81
